- Measured on: Sodium-dependent serotonin transporter (Homo sapiens)
- Sequence (P31645 whole entry): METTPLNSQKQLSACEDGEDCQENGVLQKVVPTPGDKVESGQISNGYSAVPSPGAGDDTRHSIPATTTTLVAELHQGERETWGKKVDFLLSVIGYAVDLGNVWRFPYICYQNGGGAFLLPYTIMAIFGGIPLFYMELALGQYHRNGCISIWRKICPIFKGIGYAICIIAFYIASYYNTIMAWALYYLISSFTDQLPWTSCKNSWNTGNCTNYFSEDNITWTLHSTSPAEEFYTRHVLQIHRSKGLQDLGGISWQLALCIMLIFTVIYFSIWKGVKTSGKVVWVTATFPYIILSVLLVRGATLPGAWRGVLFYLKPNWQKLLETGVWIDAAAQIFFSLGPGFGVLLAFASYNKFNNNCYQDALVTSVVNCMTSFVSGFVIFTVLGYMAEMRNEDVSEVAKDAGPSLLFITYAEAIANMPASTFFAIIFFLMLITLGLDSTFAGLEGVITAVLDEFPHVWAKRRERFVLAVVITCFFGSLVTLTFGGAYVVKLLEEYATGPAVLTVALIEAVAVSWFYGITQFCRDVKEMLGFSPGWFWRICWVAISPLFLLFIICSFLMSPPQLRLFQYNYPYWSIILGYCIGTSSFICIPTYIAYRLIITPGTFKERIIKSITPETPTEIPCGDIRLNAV
- Measurement notes: Displacement of [3H](R,S)citalopram.HBr from human SERT transfected in human HEK293 cells
Listed molecules paired with reported Ki
Reported endpoint: Ki (nM)

{"Molecule": "O=C(OCCF)C1C2CCC(CC1c1cccc(/C=C/I)c1)N2 (trans isomer)", "Reported endpoint": "Ki", "Quantitative readout": 15.2}
{"Molecule": "O=C(OCCCF)C1C2CCC(CC1c1cccc(/C=C\\I)c1)N2 (stereo unspecified)", "Reported endpoint": "Ki", "Quantitative readout": 0.26}
{"Molecule": "O=C(OCCF)C1C2CCC(CC1c1cccc(/C=C\\Br)c1)N2 (stereo unspecified)", "Reported endpoint": "Ki", "Quantitative readout": 0.33}
{"Molecule": "O=C(OCCCF)C1C2CCC(CC1c1cccc(/C=C\\Br)c1)N2 (stereo unspecified)", "Reported endpoint": "Ki", "Quantitative readout": 0.33}
{"Molecule": "O=C(OCC[18F])C1C2CCC(CC1c1ccc(/C=C\\I)cc1)N2 (stereo unspecified)", "Reported endpoint": "Ki", "Quantitative readout": 0.08}
{"Molecule": "O=C(OCCF)C1C2CCC(CC1c1cccc(/C=C\\I)c1)N2 (stereo unspecified)", "Reported endpoint": "Ki", "Quantitative readout": 0.43}
